Measured TGI values are reported for all entries that follow.
Tested on: MOLT-4 leukemia
Experiment: NCI tumour cell line growth inhibition, 48 h

Some compounds with known TGI results, for comparison:
[
  {
    "compound": "CCOC(=O)c1sc(=S)n(-c2ccc(Cl)cc2)c1-n1cc(-c2ccccc2)c(C#N)c1N",
    "readoutType": "TGI",
    "recordedMeasurement": "> 100 µM"
  },
  {
    "compound": "Cc1ccc(C(=O)N/N=C(\\N=Nc2cccc([N+](=O)[O-])c2)c2ccc(N(CCC#N)CCC#N)cc2C)cc1",
    "readoutType": "TGI",
    "recordedMeasurement": "> 82.6 µM"
  }
]

Input line: Entry under review: COc1cccc2c1C(=N)c1c(O)c3c(c(O)c1C2=O)C[C@@](O)(C(C)=O)C[C@@H]3O[C@H]1C[C@H](N)[C@H](O)[C@H](C)O1 . Reported TGI?
Output line: 2.89 µM

Input line: Also Cc1ccc(-n2[nH]nc(C(N)=O)c2=O)cc1 , if possible.
Output line: > 100 µM

Input line: Also CC1C2CC(C(S(=O)(=O)O)C2=O)C1(C)C (stereo not given) , if possible.
Output line: > 100 µM

Input line: Also Cc1cc(Cl)ccc1OCC(=O)Nc1nc2c(Cl)cccc2s1 , if possible.
Output line: 60.3 µM

Input line: Also Cc1ccc(S(=O)(=O)OC2CC=CC2)cc1 , if possible.
Output line: > 100 µM

Input line: Also COc1cc2c(cc1OCCCCCCCCCCN1C(=O)c3cccc4cccc(c34)C1=O)N=C[C@@H]1CCCN1C2=O , if possible.
Output line: 5.76 µM

Input line: Also COc1ccc(CC2COc3cc(OC)cc(OC)c3C2=O)cc1 (stereo not given) , if possible.
Output line: > 100 µM

Input line: Also O=C(Nc1cccc(O)c1)C(=O)C1C(=O)NC(=S)NC1=O , if possible.
Output line: > 100 µM

###

Measured TGI values are reported for all entries that follow.
System: HT29 colon
Assay: NCI tumour cell line growth inhibition, 48 h

Some molecules with known TGI results, for comparison:
[
  {
    "molecule": "COc1ccc(Cn2c3c(cc(OC(C)=O)c2=O)Cc2ccccc2-3)cc1",
    "systemTested": "HT29 colon",
    "readoutType": "TGI",
    "recordedMeasurement": "25.2 µM"
  },
  {
    "molecule": "Cc1ccc(C(=O)O)c(/C=C2\\Cc3ccc(C)cc3C2=O)c1",
    "systemTested": "HT29 colon",
    "readoutType": "TGI",
    "recordedMeasurement": "> 100 µM"
  },
  {
    "molecule": "CC(=O)Oc1c(C)c(-c2ccccc2)c(C)c(-c2ccccc2)c1C(=S)c1ccccc1",
    "systemTested": "HT29 colon",
    "readoutType": "TGI",
    "recordedMeasurement": "> 100 µM"
  }
]

Input line: Entry under review: Nc1cc([N+](=O)[O-])ccc1C(=O)N1CCC[C@H]1CO . Reported TGI?
Output line: > 100 µM

Input line: Also N#CCC(=O)N/N=C1/C(=O)N(c2ccc(Cl)cc2)C(=O)C(=O)C1c1nc2ccccc2s1 (stereo not given) , if possible.
Output line: > 100 µM

Input line: Also COc1ccc2c(c1)/C(=C\c1c(Cl)[nH]c3cc(C)c(OC)cc13)C(=O)N2 , if possible.
Output line: 7.27 µM

Input line: Also Cc1nc2ccc(Br)cc2c(=O)n1-c1nnc(C(C)(C)C)s1 , if possible.
Output line: > 10 µM

Input line: Also O=C(O)c1c2c(cc3c1CC(Cc1ccccc1)C3=O)CCC2 (stereo not given) , if possible.
Output line: > 100 µM

Input line: Also [N-]=[N+]=NCCCn1c2c(c3ccc([N+](=O)[O-])cc3c1=O)C(=O)c1ccccc1-2 , if possible.
Output line: > 100 µM

Input line: Also CC(C)(C)C1=C(Br)C(C(C)(C)C)OP1(=O)O (stereo not given) , if possible.
Output line: > 100 µM

# credit: PubChem BioAssay (NCI)
